These measurements were taken from patent US20150259422A1.

# relative binding score (EC50 of variant divided by EC50 of chimeric HLMC) per record follows
Biological target: T1, alphaVbeta3 integrin, native human, on rhabdomyosarcoma (RD) cells and on human umbilical vein endothelial … (human, UniProt P06756 31-1048; P05106 27-788)
T1 construct: whole, on cells; also called αVβ3; native human β3
T1 sequence (P06756 31-1048, chain 1 of 2): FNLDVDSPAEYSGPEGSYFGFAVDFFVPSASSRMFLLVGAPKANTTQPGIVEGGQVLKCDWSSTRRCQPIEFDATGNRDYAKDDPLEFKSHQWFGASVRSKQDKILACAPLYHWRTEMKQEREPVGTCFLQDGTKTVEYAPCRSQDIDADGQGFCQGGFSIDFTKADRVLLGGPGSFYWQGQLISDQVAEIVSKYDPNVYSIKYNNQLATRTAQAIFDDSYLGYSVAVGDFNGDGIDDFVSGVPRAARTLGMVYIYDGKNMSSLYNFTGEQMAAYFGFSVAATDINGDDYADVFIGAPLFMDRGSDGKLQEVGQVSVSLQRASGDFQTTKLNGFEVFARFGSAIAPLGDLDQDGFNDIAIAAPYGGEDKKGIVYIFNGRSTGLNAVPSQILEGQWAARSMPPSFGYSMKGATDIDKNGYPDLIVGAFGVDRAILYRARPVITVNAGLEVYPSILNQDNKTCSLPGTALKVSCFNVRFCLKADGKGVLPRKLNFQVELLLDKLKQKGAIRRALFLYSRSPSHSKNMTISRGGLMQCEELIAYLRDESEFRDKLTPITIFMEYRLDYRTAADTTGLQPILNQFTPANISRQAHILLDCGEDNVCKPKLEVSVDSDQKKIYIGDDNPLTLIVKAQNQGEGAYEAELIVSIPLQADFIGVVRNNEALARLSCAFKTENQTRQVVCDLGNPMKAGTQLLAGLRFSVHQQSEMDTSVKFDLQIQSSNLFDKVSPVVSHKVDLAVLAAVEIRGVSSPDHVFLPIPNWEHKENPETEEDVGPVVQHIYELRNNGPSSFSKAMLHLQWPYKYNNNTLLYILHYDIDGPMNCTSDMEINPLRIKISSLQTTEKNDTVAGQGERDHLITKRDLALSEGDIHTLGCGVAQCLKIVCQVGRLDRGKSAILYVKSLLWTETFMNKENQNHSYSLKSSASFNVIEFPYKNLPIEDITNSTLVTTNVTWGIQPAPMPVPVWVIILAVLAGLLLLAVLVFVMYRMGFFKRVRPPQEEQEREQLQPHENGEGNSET
T1 sequence (P05106 27-788, chain 2 of 2): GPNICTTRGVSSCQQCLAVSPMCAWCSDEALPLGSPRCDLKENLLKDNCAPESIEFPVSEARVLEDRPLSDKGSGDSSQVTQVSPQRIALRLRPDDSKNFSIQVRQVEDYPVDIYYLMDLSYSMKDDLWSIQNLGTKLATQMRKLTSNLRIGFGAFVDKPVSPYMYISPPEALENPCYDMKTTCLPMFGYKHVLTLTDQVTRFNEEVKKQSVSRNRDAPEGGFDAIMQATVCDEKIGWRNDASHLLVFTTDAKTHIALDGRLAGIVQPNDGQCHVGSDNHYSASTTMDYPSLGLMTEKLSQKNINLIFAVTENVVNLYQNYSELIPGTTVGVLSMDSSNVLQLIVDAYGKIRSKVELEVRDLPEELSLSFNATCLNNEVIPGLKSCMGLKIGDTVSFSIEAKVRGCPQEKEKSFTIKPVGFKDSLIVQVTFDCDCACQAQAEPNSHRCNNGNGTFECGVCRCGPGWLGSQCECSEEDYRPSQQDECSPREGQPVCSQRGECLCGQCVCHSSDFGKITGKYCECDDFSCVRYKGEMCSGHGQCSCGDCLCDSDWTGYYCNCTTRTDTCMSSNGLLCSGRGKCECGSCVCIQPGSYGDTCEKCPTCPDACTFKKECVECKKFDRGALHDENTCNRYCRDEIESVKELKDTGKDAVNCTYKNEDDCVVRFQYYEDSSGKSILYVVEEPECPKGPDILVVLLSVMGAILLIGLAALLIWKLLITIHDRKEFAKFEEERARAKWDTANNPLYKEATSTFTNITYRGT
Test: flow cytometry on RD cells expressing alphaVbeta3; reference chimeric HLMC
measurement kind: relative binding score (EC50 of variant divided by EC50 of chimeric HLMC) (ratio)

>  <binder>
VH2/Vκ2 Composite Human Antibody variant of HLMC (antibody, human IgG1, kappa, V domains shown, also called VH2/Vk2) VH: QAQLVQSGPEVKKPGASVKVSCKASGYLFSNSWMNWVKQRPGAGLEWIGRIFPGDGDTNYNGKFKGRATITADKSTSTAYMELSSLRSEDTAVYFCARWGLTRDRRLYLDYWGQGTTVTVSS VL: DIVMTQSPDSLAVSLGERATINCKSSQSLLYSSNQKNYLAWYQQKPGQAPRLLIYWASTRESGVPDRFTGSGSGTDFTLTISSLQAEDVAVYYCKQYYTYPLTFGQGTKLEIKR

>  <value observed>
1.37

$$$$
>  <binder>
VH5/Vκ3 Composite Human Antibody variant of HLMC (antibody, human IgG1, kappa, V domains shown, also called VH5/Vk3) VH: QAQLVQSGAEVKKPGASVKVSCKASGYLFSNSWMNWVKQRRGAGLEWIGRIFPGDGDTNYNGKFKGRVTITADKSTSTAYMELSSLRSEDTAVYYCARWGLTRDRRLYLDYWGQGTTVTVSS VL: DIVMTQSPDSLAVSLGERATINCKSSQSLLYSSNQKNYLAWYQQKPGQAPRLLIYWASTRESGVPDRFSGSGSGTDFTLTISSLQAEDVAVYYCKQYYTYPLTFGQGTKLEIKR

>  <value observed>
0.88

$$$$
>  <binder>
VH2/Vκ3 Composite Human Antibody variant of HLMC (antibody, human IgG1, kappa, V domains shown, also called VH2/Vk3) VH: QAQLVQSGPEVKKPGASVKVSCKASGYLFSNSWMNWVKQRPGAGLEWIGRIFPGDGDTNYNGKFKGRATITADKSTSTAYMELSSLRSEDTAVYFCARWGLTRDRRLYLDYWGQGTTVTVSS VL: DIVMTQSPDSLAVSLGERATINCKSSQSLLYSSNQKNYLAWYQQKPGQAPRLLIYWASTRESGVPDRFSGSGSGTDFTLTISSLQAEDVAVYYCKQYYTYPLTFGQGTKLEIKR

>  <value observed>
1.03

$$$$
>  <binder>
VH4/Vκ1 Composite Human Antibody variant of HLMC (antibody, human IgG1, kappa, V domains shown, also called Vh4/Vk1; VH4/Vk1) VH: QAQLVQSGAEVKKPGASVKVSCKASGYLFSNSWMNWVKQRRGAGLEWIGRIFPGDGDTNYNGKFKGRVTITADKSTSTAYMELSSLRSEDTAVYFCARWGLTRDRRLYLDYWGQGTTVTVSS VL: DIVMTQSPDSLVVSLGERATINCKSSQSLLYSSNQKNYLAWYQQKSGQAPRLLIYWASTRESGVPDRFTGSGSGTDFTLTISSLQAEDVAVYYCKQYYTYPLTFGQGTKLEIKR

>  <value observed>
0.87

$$$$
